List of melting point values.

Here is how some compounds turned out for melting point.
1) COc1ccc(C(O)CNC(C)CCc2ccccc2)cc1C(N)=O (stereo unspecified) :: 110 to 148 °C
2) O=C1c2c(cc(O)c(O)c2[N+](=O)[O-])CC1CN1CCOCC1 (stereo unspecified) :: 193 to 195 °C

IN: Quote melting point reported for COc1cccc(-c2nc(N)c(C(N)=O)nc2-c2ccc(=O)n(C(C)C)c2)c1 please.
OUT: 192 °C

IN: Quote melting point reported for CC(=O)C1CNCc2c1[nH]c1cnc3ccccc3c21 (stereo unspecified) please.
OUT: 218 to 221 °C

IN: Quote melting point reported for Clc1ccc(-c2cc3ncnc(Nc4ccc5[nH]ccc5c4)c3s2)cc1 please.
OUT: 190 to 210 °C

IN: Quote melting point reported for CN1CCC23CC(=O)CCC2(O)C1Cc1ccccc13 (stereo unspecified) please.
OUT: 143 to 144 °C

IN: Quote melting point reported for COc1c(-c2ccc(C=NNS(C)(=O)=O)cc2)cc(N2CCC(=O)NC2=O)cc1C(C)(C)C please.
OUT: 209 to 211 °C

IN: Quote melting point reported for C=Cc1nn(Cc2ccc(C(=O)OC)cc2OC)c2cc(C(=O)NCC3CCCC3)ccc12 please.
OUT: 138 to 140 °C

IN: Quote melting point reported for COc1cc(C#N)cc(Br)c1O please.
OUT: 144 to 145 °C

IN: Quote melting point reported for OC1CSC(Oc2cc(-c3ccc(F)nc3)ccc2Cl)C(O)C1O (stereo unspecified) please.
OUT: 185 °C

IN: Quote melting point reported for CCCCCCCCCCC(O)C(O)CN (stereo unspecified) please.
OUT: 98 to 100 °C

IN: Quote melting point reported for Cc1cccc2nc3c(c(N)c12)CCCC3 please.
OUT: 143 to 145 °C

====

List of melting point values.

IN: Quote melting point reported for CN(C)CCOc1cc2c(Nc3ccc(F)c(Cl)c3)c(C#N)cnc2cn1 please.
OUT: 131 to 132 °C

IN: Quote melting point reported for CCOC(=O)c1cnn2c1[nH]c(=O)c1cnc3c(cnn3CC)c12 please.
OUT: 263 to 265 °C

IN: Quote melting point reported for CCc1ccc(-c2ccc(C(=O)c3ccccc3)cc2)cc1 please.
OUT: 106 to 108 °C

IN: Quote melting point reported for Cc1cnc(OCC(O)CNC(C)(C)C)c2cc(Cl)ccc12 (stereo not given) please.
OUT: 116 to 117 °C

====

List of melting point values.

1) CCCC(=O)C1c2cccc(O)c2C(=O)c2c(O)cccc21 :: 138 °C
2) COc1cc2c(cc1F)C1(CO2)C(=O)Nc2ccccc21 (stereo unspecified) :: 222 to 225 °C
3) CN1CCC(Oc2ccc(Cl)cc2)(c2ccccc2)C(O)C1 (stereo unspecified) :: 164 to 165 °C
4) O=C(COc1ccc(Cl)cc1)C1(Cl)CC1 :: 78 °C
5) O=C(O)COc1ccc(SCc2ccc(OCc3cc(Cl)cc(Cl)c3)cc2)c2c1CCC2 :: 134 to 135 °C

IN: Quote melting point reported for ClCCOc1cccc2nc[nH]c12 please.
OUT: 153 to 154 °C

IN: Quote melting point reported for CC(=O)NCCCc1cccc2c1CCO2 please.
OUT: 66 to 67 °C

====

List of melting point values.

1) COc1ccc2ccc(N3C(=O)c4ccccc4C3OC(=O)CCCNC(C)=O)nc2n1 (stereo not given) :: 190 °C
2) O=C(Cc1ccc(Cl)cc1)c1ccc(Br)cc1 :: 128 to 129 °C
3) Cc1nc(N)nc(N)c1CCC(C)c1ccc(Cl)cc1 (stereo not given) :: 125 to 128 °C
4) O=c1[nH]ccn1-c1ccc(F)cc1 :: 166 to 167 °C
5) CC(C)(C)c1cc(SC2CC(=O)OC2=O)cc(C(C)(C)C)c1O (stereo not given) :: 92 to 93 °C
6) COCc1ccc(C(=O)NC(C#N)n2cccn2)cc1 (stereo not given) :: 155 to 157 °C
7) O=C(c1ccccc1)c1ccc(CO)cc1 :: 59 to 61 °C
8) COc1ccc2c(c1OCc1ccccc1)CCN(C(C)=O)C2 :: 94 to 95 °C

IN: Quote melting point reported for CC(=O)N(C)c1ccc2sc3ccccc3c(=O)c2c1 please.
OUT: 246 to 248 °C

IN: Quote melting point reported for COc1cc2cc3c(Cl)c(C#N)cnc3cc2cc1O please.
OUT: > 300 °C

IN: Quote melting point reported for CCOP(=O)(OCC)c1ccc2cc(I)cc(-c3cccc4ccccc34)c2n1 please.
OUT: 127 to 128 °C

IN: Quote melting point reported for CC(C)(C)C(=O)Nc1cc2c(O)n(I)cnc-2n1 please.
OUT: > 240 °C

IN: Quote melting point reported for Cc1ccc(C)c(OCc2ccccc2/C(=N\O)C(N)=O)c1 please.
OUT: 166 to 168 °C

IN: Quote melting point reported for COc1ccc(-c2nc(-c3ccccc3)c(-c3ccncc3)n2C)cc1 please.
OUT: 193 to 194 °C

====

List of melting point values.

Here is how some molecules turned out for melting point.
1) COc1ccc(C=CC(=O)c2c(OC)cc(OC)cc2OC(=O)CCCC(=O)O)cc1 :: 131 to 132 °C
2) COC(=O)c1ccc(C(=O)OC)c(SCc2ccccc2)c1 :: 90 to 93.5 °C
3) Cc1ccnc(C=NNC(N)=S)c1N :: 227 to 228 °C
4) CS(=O)(=O)Nc1ccc2c(c1)C(=O)C(Br)CC2 (stereo not drawn) :: 87 to 92 °C
5) Cc1c(C)c2c(c(C)c1NC(=O)c1ccccc1)CC(C)(C)O2 :: 263 to 265 °C
6) O=C(O)C1=Cc2cc(OCc3ccccc3)ccc2OC1 :: 184 to 189 °C
7) CC1N=CC=C(CS)C1(O)CC(=O)O (stereo not drawn) :: 185 to 187 °C
8) CCOC(=O)C1=C(C)NN=C(c2ccco2)C1c1ccccc1 (stereo not drawn) :: 158 °C
9) CC1CCC(C(=O)Nc2ccc(-c3ncc(-c4ccc(NC(=O)C5CCCCC5C)cc4)[nH]3)cc2)CC1 (stereo not drawn) :: 218 to 220 °C
10) COc1cc(C[C@H]2NC(=O)CN(Cc3ccccc3)C2=O)ccc1C :: 205 to 209 °C

IN: Quote melting point reported for CCOc1cc2c(cc1OCC)C(C(S)(C#N)CCC(=O)O)=NCC2 (stereo not drawn) please.
OUT: 106 to 108 °C

IN: Quote melting point reported for N[C@H]1CC[C@H](CC(=O)N2CCN(c3ccccc3)CC2)CC1 please.
OUT: 90 to 93 °C

IN: Quote melting point reported for CCO[C@@H](Cc1ccc2oc(Cc3nc(-c4ccccc4)oc3C)cc2c1)C(=O)O please.
OUT: 129 °C

IN: Quote melting point reported for CC1(CO)OCC2(CO1)COC(C)(CO)OC2 (stereo not drawn) please.
OUT: 127 to 128 °C

IN: Quote melting point reported for O=C(NCc1ccc(Cl)cc1)c1cnc2c(F)cc(C#CCO)cc2c1O please.
OUT: 277 to 279 °C

IN: Quote melting point reported for COC(=O)[C@H](Cc1ccc(NC(=O)c2c(Cl)cccc2Cl)cc1)NC(=O)c1c(C)cccc1Cl please.
OUT: 244 to 245 °C

IN: Quote melting point reported for COc1cc(CCl)nc(N)n1 please.
OUT: 89 to 90 °C

====

List of melting point values.

Here is how some compounds turned out for melting point.
1. CCOC(=O)N1Cc2ccccc2C(Oc2ccc([N+](=O)[O-])cc2)C1 (stereo not given) :: 118 to 119 °C
2. COc1ccc(-c2[nH]nc3c2C(=O)c2c(NC(=O)N[C@@H]4CCCC[C@@H]4N)cccc2-3)cc1 (relative stereo) :: > 300 °C
3. Cn1nc(Nc2cc(Cl)n[nH]c2=O)cc1CN1CCC1 :: 140 to 141 °C
4. CC(C)OC(=O)Cn1c(=O)n(C)c(=O)n(-c2cc(N=c3sc(=S)n4n3CCCC4)c(F)cc2Cl)c1=O :: 115 to 122 °C
5. Cc1ncc2n1-c1ccc(C#N)cc1C(c1ccccc1F)=NC2 :: 198 to 203 °C

IN: Quote melting point reported for CNC(=O)CCCCSc1nccc(NC(N)=NCC(F)(F)F)n1 please.
OUT: 148 to 150 °C

IN: Quote melting point reported for Cn1nnnc1NCC(O)CCOc1cccc(CN2CCCCC2)c1 (stereo not given) please.
OUT: 138 to 139 °C

IN: Quote melting point reported for CCCCn1sc2nccn2c1=O please.
OUT: 142 to 143 °C

IN: Quote melting point reported for C[C@@H]1Nc2nc(Cl)ccc2NC1=O please.
OUT: 236 to 237 °C

IN: Quote melting point reported for O=C(O)c1cccc(OC(F)(F)C(F)(F)F)c1 please.
OUT: 131 to 134 °C
